target: αER (Homo sapiens, UniProt P03372); construct: expressed in transfected cells; host or cells: 293 cells (Human Embryonic Kidney, ATCC CRL-1573); assay: Cell-based assay for ER transcriptional activity (ERE β-gal reporter), αER-transfected 293 cells; conditions: 293 cells transfected with αER and ERE reporter; maximal response; unit assumed
Sequence (P03372 whole entry): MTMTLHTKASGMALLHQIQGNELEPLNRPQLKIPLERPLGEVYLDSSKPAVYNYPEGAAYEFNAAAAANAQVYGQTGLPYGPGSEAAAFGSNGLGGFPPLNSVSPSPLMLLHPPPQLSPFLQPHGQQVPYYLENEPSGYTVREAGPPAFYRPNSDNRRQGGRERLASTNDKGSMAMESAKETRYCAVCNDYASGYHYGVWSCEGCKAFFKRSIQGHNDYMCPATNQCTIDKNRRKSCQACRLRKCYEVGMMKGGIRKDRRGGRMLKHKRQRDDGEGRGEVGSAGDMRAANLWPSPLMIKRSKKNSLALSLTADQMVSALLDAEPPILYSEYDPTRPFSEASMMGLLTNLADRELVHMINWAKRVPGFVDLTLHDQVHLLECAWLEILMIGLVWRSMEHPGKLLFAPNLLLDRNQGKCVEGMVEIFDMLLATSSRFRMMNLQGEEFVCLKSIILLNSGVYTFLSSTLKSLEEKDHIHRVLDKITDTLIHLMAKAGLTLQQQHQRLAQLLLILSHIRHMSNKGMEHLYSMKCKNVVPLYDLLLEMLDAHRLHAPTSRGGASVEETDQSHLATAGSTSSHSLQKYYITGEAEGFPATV

| molecule | unit_of_measurement | ERE α-ER Max |
| --- | --- | --- |
| CCC1c2ccc(O)cc2CCN1c1ccc(O)c(Cl)c1 (stereo not drawn) [Example 19] | % | 66 |
| Cc1cc(O)ccc1N1CCc2cc(O)ccc2C1 [Example 3] | % | 93 |
| Oc1ccc(N2CCc3cc(O)ccc3C2c2ccccc2)cc1 (stereo not drawn) [Example 6] | % | 100 |
| Cc1ccc(N2CCc3cc(O)ccc3C2c2ccoc2)cc1O (stereo not drawn) [Example 21] | % | 77 |
| Oc1ccc2c(c1)CCN(c1ccc(Cl)cc1Cl)C2 [Example 13] | % | 89 |
| Oc1ccc(N2Cc3ccc(O)cc3C2)cc1 [Example 25, 5-Hydroxy-2-(4-hydroxyphenyl)isoindoline] | % | 60 |
| CCC1c2cc(O)ccc2CN1c1ccc(O)cc1 (stereo not drawn) [Example 26] | % | 102 |
| CC1c2ccc(O)cc2CCN1c1cccc(O)c1 (stereo not drawn) [Example 17] | % | 87 |
| Cc1ccc(N2CCc3cc(O)ccc3C2c2ccccc2)cc1O (stereo not drawn) [Example 20] | % | 75 |
| Cc1ccccc1C1c2ccc(O)cc2CCN1c1ccc(O)cc1 (stereo not drawn) [Example 12] | % | 113 |
| Oc1ccc(N2CCc3cc(O)ccc3C2c2ccc(Cl)cc2Cl)cc1 (stereo not drawn) [Example 10] | % | 95 |
| CC1c2ccc(O)cc2CCN1c1ccc(O)cc1 (stereo not drawn) [Example 14] | % | 42 |

----------
target: human recombinant ERβ (Homo sapiens); assay: Fluorescence polarization estrogen receptor (ERFP) binding assay, ERβ; conditions: competition with Fluormone ES2; IC50 converted to Ki by Kenakin formula; read-out: FP β-ER Ki
Sequence (Q92731 whole entry): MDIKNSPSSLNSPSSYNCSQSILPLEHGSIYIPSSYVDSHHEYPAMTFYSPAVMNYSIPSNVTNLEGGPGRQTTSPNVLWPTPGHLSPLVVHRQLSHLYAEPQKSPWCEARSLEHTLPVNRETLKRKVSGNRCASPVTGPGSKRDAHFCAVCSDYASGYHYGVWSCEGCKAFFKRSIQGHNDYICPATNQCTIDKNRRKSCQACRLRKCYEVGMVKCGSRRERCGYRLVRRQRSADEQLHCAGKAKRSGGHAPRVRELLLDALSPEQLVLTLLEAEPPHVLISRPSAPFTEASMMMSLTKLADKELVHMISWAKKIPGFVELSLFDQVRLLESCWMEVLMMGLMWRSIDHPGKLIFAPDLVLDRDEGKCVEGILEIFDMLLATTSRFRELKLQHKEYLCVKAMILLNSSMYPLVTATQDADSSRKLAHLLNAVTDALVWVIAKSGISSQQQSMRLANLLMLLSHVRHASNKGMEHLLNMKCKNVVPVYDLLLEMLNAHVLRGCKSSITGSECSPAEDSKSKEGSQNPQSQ
pKi: −log10 of the molar value.
quantity_measured: pKi

| compound | result_value |
| --- | --- |
| CC1c2ccc(O)cc2CCN1c1ccc(O)cc1 (stereo not drawn) | 7.35 |
| Cc1cc(O)ccc1N1CCc2cc(O)ccc2C1 | 8.10 |
| Oc1ccc(N2CCc3cc(O)ccc3C2Cc2ccccc2)cc1 (stereo not drawn) | 7.74 |
| Cc1ccc(N2CCc3cc(O)ccc3C2c2ccccc2)cc1O (stereo not drawn) | 8.92 |
| CCC1c2ccc(O)cc2CCN1c1ccc(O)cc1 (stereo not drawn) | 7.74 |
| CSc1ccc(C2c3ccc(O)cc3CCN2c2ccc(O)cc2)cc1 (stereo not drawn) | 7.41 |
